ASSAY_PROCEDURE: IASyS reversibility of biotin binding of avidin and AVRs
EXPERIMENTAL_SETUP: biotin cuvette, after addition of free biotin (0.17 mg/ml)
ATTRIBUTE_MEASURED: Reversibility of biotin binding (%)
Unit % implied. Number only.

Item: AVR2: Recombinant chicken avidin-related protein 2, produced in Sf9 insect cells (protein, UniProt P56732 25-150, looked up) Avidin-related protein 2: ARKCSLTGEWDNDLGSIMTIGAVNDNGEFDGTYITAVADNPGNITLSPLLGIQHKRASQPTFGFTVHWNFSESTSVFVGQCFVDRSGKEVLKTKWLQRLAVDDISDDWIATRVGNNDFTRQHTVEE | Reversibility of biotin binding: 94
